Consider the following sequences and their measured shrunken log2 fold change readings.
System: Escherichia coli TOP10;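 note: peptides expressed intracellularly from a pBAD plasmid library in pooled LB shake-flask culture, induced with 0.3% L-arabinose, DNA abundance read by NGS, three biological replicates, DESeq2 with apeglm shrinkage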
Assay: shrunken log2 fold change of peptide-encoding DNA abundance (4.5 h post-induction vs induction); higher = less antimicrobial activity (less host growth inhibition)
Details: time post-induction: 4.5 h; library: site-saturation at positions 5, 18, 19, 20
Response field accepts a number only; no unit should be typed.

Consider the following illustrative entries.
input: // lookup shrunken log2 fold change for RRIRFRPPRLPRPRPRPSTDPRP
output: -0.667

input: I am curious: what shrunken log2 fold change value has been reported for RRIRYRPPRLPRPRPRPGKEPRP ?
output: 0.0011

input: Value lookup for shrunken log2 fold change; key = RRIRLRPPRLPRPRPRPKTRPRP
output: 0.226

input: What does the record list as shrunken log2 fold change for RRIRNRPPRLPRPRPRPDHQPRP ?
output: 0.113

input: For the sequence shown here, RRIRGRPPRLPRPRPRPDWYPRP , give the reported shrunken log2 fold change.
output: 0.134

input: Query: shrunken log2 fold change; subject: RRIRMRPPRLPRPRPRPDKTPRP
output: 0.00408

input: Requested field: shrunken log2 fold change. Item: RRIRNRPPRLPRPRPRPIIWPRP
output: -0.139

input: Query: shrunken log2 fold change; subject: RRIRERPPRLPRPRPRPVGAPRP
output: 0.392

input: Which shrunken log2 fold change value belongs to RRIRDRPPRLPRPRPRPCGRPRP ?
output: 0.147

input: // shrunken log2 fold change lookup, key: RRIRSRPPRLPRPRPRPDIHPRP
output: -1.3

Next:
input: I would be grateful if you could share the reported shrunken log2 fold change for RRIRARPPRLPRPRPRPLIGPRP .
output: 0.107

input: Can you look up the measured shrunken log2 fold change of RRIRFRPPRLPRPRPRPNIIPRP for me?
output: -0.706

input: So what does the record say about shrunken log2 fold change for RRIRQRPPRLPRPRPRPAMMPRP ?
output: 0.00621

input: Find the recorded shrunken log2 fold change belonging to RRIRQRPPRLPRPRPRPMVAPRP and report it.
output: 0.143

input: Recorded shrunken log2 fold change of RRIRQRPPRLPRPRPRPWHFPRP , please.
output: -0.0375

input: Look at this sequence and give its reported shrunken log2 fold change. RRIRFRPPRLPRPRPRPPMNPRP
output: -0.0762

input: Which measured shrunken log2 fold change value corresponds to RRIRKRPPRLPRPRPRPTPQPRP ?
output: 0.896

input: Request the reported shrunken log2 fold change associated with RRIRWRPPRLPRPRPRPQDMPRP
output: -0.199

input: Fill in: shrunken log2 fold change of RRIRARPPRLPRPRPRPLYDPRP is ___
output: -0.124

input: Record request: shrunken log2 fold change value, item RRIRIRPPRLPRPRPRPKITPRP
output: -0.83

input: Name the recorded shrunken log2 fold change for RRIRPRPPRLPRPRPRPIFNPRP .
output: -0.238

input: Look up shrunken log2 fold change for this sequence: RRIRYRPPRLPRPRPRPPFDPRP
output: -0.565

input: shrunken log2 fold change for RRIRRRPPRLPRPRPRPHMQPRP ?
output: 0.0237

input: Which shrunken log2 fold change value is on record for RRIRSRPPRLPRPRPRPDFKPRP ?
output: -0.0946

input: Look up shrunken log2 fold change: RRIRQRPPRLPRPRPRPDVSPRP
output: 0.0409

input: Fill blank: measured shrunken log2 fold change of the sequence RRIRFRPPRLPRPRPRPLLHPRP is ____.
output: -0.247

input: What does the data say about its shrunken log2 fold change? Entry: RRIRYRPPRLPRPRPRPAAPPRP
output: 0.726

input: I have this sequence here, RRIRIRPPRLPRPRPRPKKPPRP , and I need its recorded shrunken log2 fold change.
output: 0.0487

input: For the sequence RRIRYRPPRLPRPRPRPRVAPRP , what shrunken log2 fold change is on record?
output: 0.0343

input: What does the data say about its shrunken log2 fold change? Entry: RRIRNRPPRLPRPRPRPTSCPRP
output: -0.173

Where do the numbers come from? From the supplement of paper PMC9112550.
